These measurements were taken from patent US20200031785A1.

Give hAC8 % Inhib. for every item shown.
- assay-target: hAC8 (Homo sapiens, UniProt P40145)
- Construct: expressed in transfected cells
- Sequence (P40145 whole entry): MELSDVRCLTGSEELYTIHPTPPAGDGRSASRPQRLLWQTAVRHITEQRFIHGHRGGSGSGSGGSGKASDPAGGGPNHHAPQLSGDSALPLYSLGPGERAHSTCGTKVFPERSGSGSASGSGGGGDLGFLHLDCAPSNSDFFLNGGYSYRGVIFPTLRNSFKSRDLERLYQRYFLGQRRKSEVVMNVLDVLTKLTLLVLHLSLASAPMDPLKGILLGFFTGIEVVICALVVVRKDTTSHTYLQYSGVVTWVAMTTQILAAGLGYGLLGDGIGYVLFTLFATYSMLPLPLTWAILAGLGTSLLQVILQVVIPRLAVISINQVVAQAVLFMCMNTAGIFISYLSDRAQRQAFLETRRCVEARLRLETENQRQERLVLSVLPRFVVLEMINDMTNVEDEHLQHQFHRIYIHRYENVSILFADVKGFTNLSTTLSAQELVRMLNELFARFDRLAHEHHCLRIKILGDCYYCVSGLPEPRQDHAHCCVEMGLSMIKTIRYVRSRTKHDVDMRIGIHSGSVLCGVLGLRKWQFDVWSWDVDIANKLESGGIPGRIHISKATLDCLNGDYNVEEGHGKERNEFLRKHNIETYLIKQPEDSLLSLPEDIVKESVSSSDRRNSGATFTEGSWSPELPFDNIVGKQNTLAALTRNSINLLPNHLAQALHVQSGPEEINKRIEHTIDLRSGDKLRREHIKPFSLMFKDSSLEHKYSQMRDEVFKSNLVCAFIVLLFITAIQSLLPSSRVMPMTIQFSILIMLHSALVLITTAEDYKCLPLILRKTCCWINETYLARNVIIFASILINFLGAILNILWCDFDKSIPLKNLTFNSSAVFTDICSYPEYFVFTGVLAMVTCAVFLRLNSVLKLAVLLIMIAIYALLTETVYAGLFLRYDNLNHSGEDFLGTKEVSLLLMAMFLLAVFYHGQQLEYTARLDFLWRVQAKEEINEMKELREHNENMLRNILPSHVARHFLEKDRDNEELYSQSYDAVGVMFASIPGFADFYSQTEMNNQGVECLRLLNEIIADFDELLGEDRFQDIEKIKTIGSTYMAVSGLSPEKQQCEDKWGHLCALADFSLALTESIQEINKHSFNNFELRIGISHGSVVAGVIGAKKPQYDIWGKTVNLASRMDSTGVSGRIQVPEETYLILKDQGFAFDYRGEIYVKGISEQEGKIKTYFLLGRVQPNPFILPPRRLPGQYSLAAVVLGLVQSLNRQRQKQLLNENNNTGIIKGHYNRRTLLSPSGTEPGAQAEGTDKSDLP
- method-summary: Cyclic AMP accumulation in HEK cells stably expressing AC8, stimulated with A23187 (HTRF)
- Assay type: cell-based
- cond: % inhibition at 30 μM (negative values indicate a potentiated response)
Quick note: give the figure in %, leave out the unit.

`CSc1ccccc1C(=O)Nc1cc(C)nn1-c1nc2c(c(=O)[nH]1)CCC2` on hAC8 (Homo sapiens, UniProt P40145) gives hAC8 % Inhib. = 35

The compound `O=C(Nc1nnc(-c2ccc3c(c2)CCCC3)o1)c1ccccc1` , tested on hAC8 (Homo sapiens, UniProt P40145), showed hAC8 % Inhib. of 76

Tested on hAC8 (Homo sapiens, UniProt P40145), the item `CCc1c(C)nc(-n2nc(C)cc2NC(=O)c2ccco2)[nH]c1=O` showed hAC8 % Inhib. equal to 34

I looked up `O=C(Nc1nnc(-c2ccc3c(c2)OCCO3)o1)c1ccc(Br)cc1` and its hAC8 % Inhib. for hAC8 (Homo sapiens, UniProt P40145) was 79

Here `CSc1cccc(C(=O)Nc2nnc(C3CCCCC3)o2)c1` was tested on hAC8 (Homo sapiens, UniProt P40145), and its hAC8 % Inhib. came to 31

Field hAC8 % Inhib. (system: hAC8 (Homo sapiens, UniProt P40145)) for entry CC1CC(C)CN(S(=O)(=O)c2ccc(C(=O)Nc3nnc(-c4cccs4)o3)cc2)C1 (stereo not shown) = 74

For the compound `CCc1cc(=O)[nH]c(-n2nc(C)cc2NC(=O)c2ccccc2F)n1` , the measured hAC8 % Inhib. on hAC8 (Homo sapiens, UniProt P40145) was 20

====

- assay-target: hAC5 (Homo sapiens)
- Construct: expressed in transfected cells
- Sequence (O95622 whole entry): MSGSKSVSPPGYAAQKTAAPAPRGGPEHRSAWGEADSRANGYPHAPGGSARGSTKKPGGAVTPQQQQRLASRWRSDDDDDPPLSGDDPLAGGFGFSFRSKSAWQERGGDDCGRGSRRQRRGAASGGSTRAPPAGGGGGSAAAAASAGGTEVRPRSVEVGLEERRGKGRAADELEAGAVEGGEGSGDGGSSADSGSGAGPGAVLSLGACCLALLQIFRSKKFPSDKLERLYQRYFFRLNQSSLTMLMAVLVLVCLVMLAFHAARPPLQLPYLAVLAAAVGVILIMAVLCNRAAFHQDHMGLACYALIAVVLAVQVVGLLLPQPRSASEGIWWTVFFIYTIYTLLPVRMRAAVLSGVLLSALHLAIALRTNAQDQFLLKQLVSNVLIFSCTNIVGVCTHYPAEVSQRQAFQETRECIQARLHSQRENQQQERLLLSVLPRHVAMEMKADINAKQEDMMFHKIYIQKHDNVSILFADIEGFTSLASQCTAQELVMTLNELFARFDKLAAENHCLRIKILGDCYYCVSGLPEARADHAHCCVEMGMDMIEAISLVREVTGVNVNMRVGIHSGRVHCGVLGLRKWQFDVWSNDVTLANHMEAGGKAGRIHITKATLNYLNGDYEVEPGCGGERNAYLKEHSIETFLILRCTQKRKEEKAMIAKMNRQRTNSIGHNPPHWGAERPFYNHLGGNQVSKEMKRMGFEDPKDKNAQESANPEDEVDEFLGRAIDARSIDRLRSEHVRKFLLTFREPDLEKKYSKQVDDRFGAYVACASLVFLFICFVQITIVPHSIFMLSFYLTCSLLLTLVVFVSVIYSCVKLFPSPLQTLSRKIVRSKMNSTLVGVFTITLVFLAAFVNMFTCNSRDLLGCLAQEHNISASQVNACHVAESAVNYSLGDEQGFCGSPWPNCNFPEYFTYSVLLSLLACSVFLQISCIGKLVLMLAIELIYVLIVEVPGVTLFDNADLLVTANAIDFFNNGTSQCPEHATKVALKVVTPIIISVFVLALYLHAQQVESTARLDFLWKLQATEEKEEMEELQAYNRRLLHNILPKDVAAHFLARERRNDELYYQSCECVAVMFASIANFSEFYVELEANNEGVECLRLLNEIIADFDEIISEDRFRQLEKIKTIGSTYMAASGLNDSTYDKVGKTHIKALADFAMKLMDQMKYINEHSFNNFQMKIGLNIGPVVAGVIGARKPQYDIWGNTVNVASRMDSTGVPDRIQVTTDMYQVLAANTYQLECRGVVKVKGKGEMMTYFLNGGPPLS
- method-summary: Cyclic AMP accumulation in stable HEK-AC5 cells, stimulated with 300 nM forskolin
- Assay type: cell-based
- cond: % inhibition at 30 μM, 300 nM forskolin-stimulated, negative = potentiated response, n = 2
For each of the compounds below, state its hAC5 % Inhib..
Give just the number in %; leave the unit off.

// hAC5 % Inhib. value for `CCc1c(C)nc(-n2nc(C)cc2NC(=O)c2ccco2)[nH]c1=O` : 13

hAC5 % Inhib. reported for this compound CC1CC(C)CN(S(=O)(=O)c2ccc(C(=O)Nc3nnc(-c4cccs4)o3)cc2)C1 (stereo not shown) : 4

The compound `CSc1ccccc1C(=O)Nc1cc(C)nn1-c1nc2c(c(=O)[nH]1)CCC2` showed hAC5 % Inhib. equal to −21

The reported value for `CCc1cc(=O)[nH]c(-n2nc(C)cc2NC(=O)c2ccccc2F)n1` in terms of hAC5 % Inhib. is 9

The reported value for `O=C(Nc1nnc(-c2ccc3c(c2)OCCO3)o1)c1ccc(Br)cc1` in terms of hAC5 % Inhib. is −10

Per the record, `CSc1cccc(C(=O)Nc2nnc(C3CCCCC3)o2)c1` has hAC5 % Inhib. of -28

get_value(item= `O=C(Nc1nnc(-c2ccc3c(c2)CCCC3)o1)c1ccccc1` , readout=hAC5 % Inhib.) returns −34

====

Viability % Vehicle, AC1-HEK cells: measured values
Use % Vehicle as the unit, but write only the number.

Viability % Vehicle measured on `CCc1c(C)nc(-n2nc(C)cc2NC(=O)c2ccco2)[nH]c1=O` = 93

molecule `CSc1ccccc1C(=O)Nc1cc(C)nn1-c1nc2c(c(=O)[nH]1)CCC2` , Viability % Vehicle observed: 106

The molecule identified as `O=C(Nc1nnc(-c2ccc3c(c2)CCCC3)o1)c1ccccc1` registered its Viability % Vehicle at 118

# molecule `CCc1cc(=O)[nH]c(-n2nc(C)cc2NC(=O)c2ccccc2F)n1` ; its Viability % Vehicle = 101

CC1CC(C)CN(S(=O)(=O)c2ccc(C(=O)Nc3nnc(-c4cccs4)o3)cc2)C1 (stereo not shown) yielded Viability % Vehicle of 118

Entry `O=C(Nc1nnc(-c2ccc3c(c2)OCCO3)o1)c1ccc(Br)cc1` — recorded Viability % Vehicle = 125

What the record says about `CSc1cccc(C(=O)Nc2nnc(C3CCCCC3)o2)c1` : Viability % Vehicle is 117

====

Provide the reported inhibition at 30 µM of each item.
- assay-target: hAC8 (Homo sapiens)
- Construct: expressed in transfected cells
- method-summary: Cyclic AMP accumulation in HEK cells stably expressing AC8, stimulated with A23187 (HTRF)
- Assay type: cell-based
- cond: HEK293; HEK-AC8 cells, 30 μM
- Description: Fresh powders of several robust inhibitors (>90% inhibition) were evaluated in multiple confirmation assays assessing the dose response relationship for inhibiting AC1 and AC8 activity. […] The primary technology we employed to measure cAMP accumulation was a homogenous time-resolved fluorescence (HTRF) assay, the same technology utilized in the primary screen. […] Cyclic AMP accumulation was measured as previously described (Brust, et al., J. Pharmacol. Exp. Ther. 352, 480-493(2015)). […]
Record the result as a number with its unit.

Input `O=C(Nc1nnc(-c2cccs2)o1)c1ccccc1` . Output inhibition at 30 µM: 18%

inhibition at 30 µM in this record for `CC(C)Oc1ccc(C(=O)Nc2nnc(-c3ccc4c(c3)OCCO4)o2)cc1` : 39%

So for `O=C(Nc1nnc(-c2ccc3c(c2)CCCC3)o1)c1ccc(Cl)cc1` , the logged inhibition at 30 µM turned out to be 90%

Form field inhibition at 30 µM, entry `CC(C)Oc1ccc(C(=O)Nc2nnc(-c3ccc4c(c3)CCCC4)o2)cc1` : 63%

Just so you know, measured inhibition at 30 µM for `CC(C)Oc1ccc(C(=O)Nc2nnc(-c3cccs3)o2)cc1` came out at 35%

Lab book: inhibition at 30 µM of `CCc1ccc(C(=O)Nc2nnc(C3CCCCC3)o2)cc1` noted as 44%

inhibition at 30 µM in this record for `CSc1cccc(C(=O)Nc2nnc(C3CCCCC3)o2)c1` : 43%

The measured inhibition at 30 µM associated with `O=C(Nc1nnc(C2CCCCC2)o1)c1ccc(Cl)cc1` reads 10%

Memo: `O=C(Nc1nnc(C2CCCCC2)o1)c1ccccc1` , reported inhibition at 30 µM: 3%

Per the record, `COc1ccc(C(=O)Nc2nnc(C3CCCCC3)o2)cc1` has inhibition at 30 µM of 6%

`O=C(Nc1nnc(-c2ccc(F)cc2)o1)c1ccc(-c2ccccc2)cc1` yielded inhibition at 30 µM of 90%

Reported inhibition at 30 µM of `COc1cccc(C(=O)Nc2nnc(-c3ccc(F)cc3)o2)c1` : 23%

====

- assay-target: hAC8 (Homo sapiens)
- Construct: expressed in transfected cells
- method-summary: Cyclic AMP accumulation in HEK cells stably expressing AC8, stimulated with A23187 (HTRF)
- Type: cell-based
- cond: HEK-AC8 cells; read-out: HEK-AC8 IC50
Give pIC50 for every item shown.
Keep in mind that pIC50 stands for -log10 of concentration in molar terms.

Data point: O=C(Nc1nnc(-c2ccc(F)cc2)o1)c1cccc(-c2ccccc2)c1 [AC10064] ; pIC50 = 5.15

Record Cc1cc(C(=O)Nc2nnc(C3CCCCC3)o2)cc(C(F)(F)F)c1 [AC10069] , field pIC50: 4.82

get_value(item= COc1cccc(C(=O)Nc2nnc(-c3ccc4c(c3)CCCC4)o2)c1 [AC10016] , readout=pIC50) returns 4.60

Input COc1cccc(C(=O)Nc2nnc(-c3ccc(F)cc3)o2)c1 [AC10034] . Output pIC50: 4.00

Just so you know, measured pIC50 for Cc1ccc(C(=O)Nc2nnc(-c3ccc(F)cc3)o2)cc1C [AC10030] came out at 4.34

The recorded pIC50 for entry O=C(Nc1nnc(C2CCCCC2)o1)c1cccc(-c2ccccc2)c1 [AC10063] equals 5.85

Notebook: O=C(Nc1nnc(-c2cccs2)o1)c1ccc(Br)cc1 [AC10009] , pIC50 read as 4.26

Notebook: COc1cc(C(=O)Nc2nnc(C3CCCCC3)o2)cc(C(F)(F)F)c1 [AC10070] , pIC50 read as 5.05

Reported pIC50 of Cc1ccc(C(=O)Nc2nnc(-c3ccc4c(c3)OCCO4)o2)cc1C [AC10035] : 4.85

// pIC50 value for O=C(Nc1nnc(-c2ccc3c(c2)CCCC3)o1)c1ccc(F)cc1 [AC10056] : 4.66

response.value for O=C(Nc1nnc(-c2ccc(F)cc2)o1)c1cccc(F)c1 [AC10046] (field: pIC50) = 4.16

The recorded pIC50 for Cc1ccc(C(=O)Nc2nnc(C3CCCCC3)o2)cc1C [AC10024] is 4.36

Just so you know, measured pIC50 for O=C(Nc1nnc(-c2ccc3c(c2)CCCC3)o1)c1ccccc1 [AC10002] came out at 4.72

So for CSc1cccc(C(=O)Nc2nnc(C3CCCCC3)o2)c1 [AC10011] , the logged pIC50 turned out to be 4.21

Summary for this molecule, Cc1ccc(C(=O)Nc2nnc(C3CCCCC3)o2)cc1C(F)(F)F [AC10071] : pIC50 is 5.15

# molecule COc1cccc(C(=O)Nc2nnc(-c3ccc4c(c3)OCCO4)o2)c1 [AC10038] ; its pIC50 = 3.94

For this molecule ( O=C(Nc1nnc(-c2ccc3c(c2)CCCC3)o1)c1cccc(C(F)(F)F)c1 [AC10026] ), measured pIC50 is 5.10

Per the records, this molecule ( O=C(Nc1nnc(-c2cccs2)o1)c1ccccc1 [AC10006] ) has pIC50 equal to 4.00

# molecule CCc1ccc(C(=O)Nc2nnc(C3CCCCC3)o2)cc1 [AC10045] ; its pIC50 = 4.15

Value of measured pIC50 for the entry CSc1cccc(C(=O)Nc2nnc(-c3cccs3)o2)c1 [AC10012] : 4.18

Reported pIC50 ( O=C(Nc1nnc(-c2ccc3c(c2)CCCC3)o1)c1cccc(F)c1 [AC10059] ) = 5.38

Looking up CSc1cccc(C(=O)Nc2nnc(-c3ccc4c(c3)CCCC4)o2)c1 [AC10013] , I see its pIC50 listed as 5.03

The value of pIC50 measured for the molecule Cc1cc(C(=O)Nc2nnc(-c3ccc(F)cc3)o2)cc(C(F)(F)F)c1 [AC10065] turned out to be 5.39

Measured pIC50 of CSc1ccc(C(=O)Nc2nnc(-c3ccc4c(c3)OCCO4)o2)cc1 [AC10020] : 4.12

Given item CC(C)Oc1ccc(C(=O)Nc2nnc(-c3cccs3)o2)cc1 [AC10017] , the value recorded as its pIC50 is 4.08

The molecule COc1cc(C(=O)Nc2nnc(-c3ccc4c(c3)CCCC4)o2)cc(C(F)(F)F)c1 [AC10074] showed pIC50 equal to 5.00

The molecule listed as CCc1ccc(C(=O)Nc2nnc(-c3ccc4c(c3)CCCC4)o2)cc1 [AC10062] has a reported pIC50 of 5.70

Lookup result for O=C(Nc1nnc(-c2ccc3c(c2)CCCC3)o1)c1ccc(Br)cc1 [AC10005] ; measured pIC50: 4.57

Value of measured pIC50 for the entry CC(C)Oc1ccc(C(=O)Nc2nnc(C3CCCCC3)o2)cc1 [AC10025] : 4.28

Reported pIC50 ( O=C(Nc1nnc(-c2ccc(F)cc2)o1)c1cccc(C(F)(F)F)c1 [AC10028] ) = 4.54

Per the record, COc1cc(C(=O)Nc2nnc(-c3ccc(F)cc3)o2)cc(C(F)(F)F)c1 [AC10068] has pIC50 of 5.22

Field pIC50 (entry O=C(Nc1nnc(C2CCCCC2)o1)c1cccc(C(F)(F)F)c1 [AC10021] ) reads 4.48

Entry Cc1ccc(C(=O)Nc2nnc(-c3ccc4c(c3)OCCO4)o2)cc1 [AC10029] — recorded pIC50 = 4.08

The molecule Cc1ccc(C(=O)Nc2nnc(-c3ccc4c(c3)CCCC4)o2)cc1 [AC10033] showed pIC50 equal to 4.60

Form: molecule = Cc1ccc(C(=O)Nc2nnc(-c3ccc4c(c3)CCCC4)o2)cc1C(F)(F)F [AC10073] ; pIC50 = 4.89

Documented pIC50 of CC(C)Oc1ccc(C(=O)Nc2nnc(-c3ccc4c(c3)OCCO4)o2)cc1 [AC10037] : 4.25

Recorded result, O=C(Nc1nnc(-c2ccc(F)cc2)o1)c1ccc(S(=O)(=O)N2CCCCC2)cc1 [AC10036] , pIC50: 4.41

Notebook: CCc1ccc(C(=O)Nc2nnc(-c3ccc(F)cc3)o2)cc1 [AC10044] , pIC50 read as 4.29

In plain terms, O=C(Nc1nnc(-c2ccc(F)cc2)o1)c1ccc(Br)cc1 [AC10008] has a documented pIC50 of 4.15
